Source listed as the Human Domainome abundance scans (Beltran et al. 2025).

B1: Steroid hormone receptor ERR2, residues 100 to 176; numbered along this chain, O95718 (parent)
chain: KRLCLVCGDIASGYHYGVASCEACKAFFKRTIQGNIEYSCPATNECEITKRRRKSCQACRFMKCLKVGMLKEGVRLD

variants of: B1; assay: abundance fitness (aPCA) (normalised: wild type 0, dead -1); higher = more abundant; growth selection in yeast, the domain comes from the species named; details: Homo sapiens
Use -0.07 as the dividing line for abundance fitness, with the line itself on the satisfied side and lower values as not satisfied.

Solved entries (count: 6):
>  <sequence string>
KRLCLVCGDIASGYHYGVASCEACKAFFKRTIQGNIEYSCPADNECEITKRRRKSCQACRFMKCLKVGMLKEGVRLD [T43D]

>  <class name>
not satisfied

$$$$
>  <sequence string>
KRLCLVCGDIASGYHYGVAKCEACKAFFKRTIQGNIEYSCPATNECEITKRRRKSCQACRFMKCLKVGMLKEGVRLD [S20K]

>  <class name>
not satisfied

$$$$
>  <sequence string>
KRLCLVCGNIASGYHYGVASCEACKAFFKRTIQGNIEYSCPATNECEITKRRRKSCQACRFMKCLKVGMLKEGVRLD [D9N]

>  <class name>
not satisfied

$$$$
>  <sequence string>
KRLCLVCGDIASGYHYGVDSCEACKAFFKRTIQGNIEYSCPATNECEITKRRRKSCQACRFMKCLKVGMLKEGVRLD [A19D]

>  <class name>
satisfied

$$$$
>  <sequence string>
KRLCLVCGDIASGYHYGVASCEACKAPFKRTIQGNIEYSCPATNECEITKRRRKSCQACRFMKCLKVGMLKEGVRLD [F27P]

>  <class name>
not satisfied

$$$$
>  <sequence string>
KRLCLVCGDIASGYHYGVAECEACKAFFKRTIQGNIEYSCPATNECEITKRRRKSCQACRFMKCLKVGMLKEGVRLD [S20E]

>  <class name>
not satisfied

$$$$

Would you say KRLCLVCGDIATGYHYGVASCEACKAFFKRTIQGNIEYSCPATNECEITKRRRKSCQACRFMKCLKVGMLKEGVRLD [S12T] shows abundance fitness at minimum -0.07?
not satisfied

Another variant to look at: KRLCLVCGDIASGYHYGVASCEACKAFFKRTIAGNIEYSCPATNECEITKRRRKSCQACRFMKCLKVGMLKEGVRLD [Q33A]
not satisfied

Another variant to look at: KRLCLVCGDIASGYHYGVASCEACKAFFKRTIQGNIEYSCPATNECEITKRSRKSCQACRFMKCLKVGMLKEGVRLD [R52S]
not satisfied

Another variant to look at: KRLCLVCGDIASGYHYGVASCEHCKAFFKRTIQGNIEYSCPATNECEITKRRRKSCQACRFMKCLKVGMLKEGVRLD [A23H]
not satisfied

Another variant to look at: KRLCLVCGDIASGYHYGVASCEACKAFFKRTIQGNIEYSCPATNECEITERRRKSCQACRFMKCLKVGMLKEGVRLD [K50E]
satisfied

Another variant to look at: KRLCLVCGDIASGYHYGVASCEACKAFFKRTIQGNIEYSCPATNECEITKRRRKSCIACRFMKCLKVGMLKEGVRLD [Q57I]
not satisfied

Another variant to look at: KRLCLVCGYIASGYHYGVASCEACKAFFKRTIQGNIEYSCPATNECEITKRRRKSCQACRFMKCLKVGMLKEGVRLD [D9Y]
not satisfied

Another variant to look at: KRLCLVCGDIASGYHYGVASCEACKAFFDRTIQGNIEYSCPATNECEITKRRRKSCQACRFMKCLKVGMLKEGVRLD [K29D]
satisfied

Another variant to look at: KRLCLVCGDIASGYHYGVASCEACKAFFKRTIQGNIEYSCPATNECEITKRRRKSCQACRFRKCLKVGMLKEGVRLD [M62R]
satisfied

Another variant to look at: KRLCLVCGDIAEGYHYGVASCEACKAFFKRTIQGNIEYSCPATNECEITKRRRKSCQACRFMKCLKVGMLKEGVRLD [S12E]
satisfied

Another variant to look at: KRLCLVCGDIASGYHYGVASCLACKAFFKRTIQGNIEYSCPATNECEITKRRRKSCQACRFMKCLKVGMLKEGVRLD [E22L]
not satisfied
